Origin of measurements: ChEMBL document CHEMBL1126988

Catalogue of MIC readings, one per entry.
Test system: Klebsiella pneumoniae
Test: Minimum inhibitory concentration was evaluated in vitro against Klebsiella pneumoniae MGH2
Type: functional

Consider the worked cases shown below.
CN[C@H](C)[C@H]1CCN(c2cc3c(cc2F)c(=O)c(C(=O)O)cn3C2CC2)C1 (mixture of isomers)	0.4 µg/mL
CCN[C@@H](C)[C@@H]1CCN(c2c(F)c(N)c3c(=O)c(C(=O)O)cn(C4CC4)c3c2F)C1 (stereo in doubt; 32H-S,R)	0.1 µg/mL
CCN[C@@H](C)[C@@H]1CCN(c2nc3c(cc2F)c(=O)c(C(=O)O)cn3C2CC2)C1	0.4 µg/mL
C[C@H](N)[C@H]1CCN(c2c(F)c(N)c3c(=O)c(C(=O)O)cn(C4CC4)c3c2F)C1 (stereo in doubt; 32F-S,R)	0.1 µg/mL
C[C@@H](N)[C@H]1CCN(c2nc3c(cc2F)c(=O)c(C(=O)O)cn3C2CC2)C1 (mixture of isomers)	0.05 µg/mL
CCN[C@H](C)[C@H]1CCN(c2cc3c(cc2F)c(=O)c(C(=O)O)cn3C2CC2)C1 (mixture of isomers; form 1)	0.8 µg/mL
CN[C@@H](C)[C@@H]1CCN(c2nc3c(cc2F)c(=O)c(C(=O)O)cn3C2CC2)C1	0.2 µg/mL
CCN[C@@H](C)[C@@H]1CCN(c2c(F)c(N)c3c(=O)c(C(=O)O)cn(C4CC4)c3c2F)C1 (stereo in doubt; 32H-S,S)	0.4 µg/mL
C[C@@H](N)[C@H]1CCN(c2cc3c(cc2F)c(=O)c(C(=O)O)cn3C2CC2)C1	0.4 µg/mL

What value of measured MIC is listed for CN[C@H](C)[C@H]1CCN(c2c(F)c(N)c3c(=O)c(C(=O)O)cn(C4CC4)c3c2F)C1 (mixture of isomers) ?
0.05 µg/mL

====

Catalogue of log10 MIC readings, one per entry.
Test system: Enterobacter cloacae
Assay: Minimum inhibitory concentration in vitro against Enterobacter cloacae MA 2646
Format: functional
Conditions: Enterobacter cloacae; read-out: MIC
// units: µg/mL (pre-log); metric: MIC; scale: log10

CNCC1CCN(c2nc3c(cc2F)c(=O)c(C(=O)O)cn3C2CC2)C1 (stereo not given)	-0.70

What value of measured log10 MIC is listed for "CN[C@@H](C)[C@H]1CCN(c2cc3c(cc2F)c(=O)c(C(=O)O)cn3C2CC2)C1" ?
-0.40

What value of measured log10 MIC is listed for NCC1CCN(c2nc3c(cc2F)c(=O)c(C(=O)O)cn3-c2ccc(F)cc2F)C1 (stereo not given) ?
-1.30

What value of measured log10 MIC is listed for COc1c(N2CCC(N)C2)c(F)cc2c(=O)c(C(=O)O)cn(C3CC3)c12 (stereo not given) ?
-1.60

What value of measured log10 MIC is listed for NC1CCN(c2c(F)cc3c(=O)c(C(=O)O)cn(C4CC4)c3c2C(F)(F)F)C1 (stereo not given) ?
-1.00

====

Catalogue of MIC readings, one per entry.
Test system: Enterobacter cloacae
Experiment: Minimum inhibitory concentration in vitro against Enterobacter cloacae MA 2646
Assay type: functional
Conditions: Enterobacter cloacae; read-out: MIC
Write down the numeric answer in µg/mL and omit the unit.

NC1CCN(c2nc3c(cc2F)c(=O)c(C(=O)O)cn3-c2ccc(F)cc2F)C1 (stereo not drawn)	0.025
CN[C@@H](C)[C@H]1CCN(c2nc3c(cc2F)c(=O)c(C(=O)O)cn3C2CC2)C1	0.4
CCn1cc(C(=O)O)c(=O)c2cc(F)c(N3CC[C@@H]([C@@H](C)N)C3)c(F)c21	0.1
CC(N)C1CCN(c2c(F)cc3c(=O)c(C(=O)O)cn(C4CC4)c3c2C(F)(F)F)C1 (stereo in doubt; 36F-R,R)	0.4
NCC1CCN(c2c(F)cc3c(=O)c(C(=O)O)cn(C4CC4)c3c2F)C1 (stereo not drawn)	0.013
CCN[C@H](C)[C@@H]1CCN(c2nc3c(cc2F)c(=O)c(C(=O)O)cn3-c2ccc(F)cc2F)C1	0.8
CCNC[C@@H]1CCN(c2c(F)cc3c(=O)c(C(=O)O)cn(CC)c3c2F)C1	0.2

With those in mind, consider the next compound.
What value of measured MIC is listed for C[C@@H](N)[C@H]1CCN(c2nc3c(cc2F)c(=O)c(C(=O)O)cn3-c2ccc(F)cc2F)C1 (racemic) ?
0.2
